Hello, the source for this data is PubChem BioAssay AID520, in case you need it.

biological target: N-formyl peptide receptor 2 (Homo sapiens)
Each entry below carries its recorded Ki.

Input line: Tell me reported Ki for CCOC(=O)c1cc(NC(=O)C2C3CCC(O3)C2C(=O)O)cc(C(=O)OCC)c1 (stereo not given) , tested with N-formyl peptide receptor 2 (Homo sapiens).
Output line: > 40.3 µM

Input line: GET /values?readout=Ki&system=N-formyl peptide receptor 2 (Homo sapiens)&item= COCc1cc(C2C(C(=O)c3ccco3)=C(O)C(=O)N2CCOCCO)ccc1O (stereo not given)
Output line: > 40.3 µM

Input line: Record O=S(=O)(Nc1cccc2ncccc12)c1cccs1 : what is its Ki with N-formyl peptide receptor 2 (Homo sapiens)?
Output line: > 40.3 µM

Input line: Which Ki is reported with N-formyl peptide receptor 2 (Homo sapiens) for this entry: Cc1nc2c(C#N)c[nH]n2c(=O)c1Cc1ccccc1 ?
Output line: > 40.3 µM

Input line: Query the reported Ki for N-formyl peptide receptor 2 (Homo sapiens); item: COc1ccc(CC(=O)Nc2ccc(-c3nnc(-c4ccc(C)cc4)o3)cc2)cc1
Output line: > 40.3 µM

Input line: Identify the measured Ki of CCOC(=O)c1sc(=S)n2c1[nH]c(=O)c1ccc(C(=O)OC)cc12 for N-formyl peptide receptor 2 (Homo sapiens).
Output line: > 40.3 µM

Input line: API: value(readout=Ki, system=N-formyl peptide receptor 2 (Homo sapiens)) for record CCOC(=O)Nc1ccc(OC)cc1S(=O)(=O)N1CCCCC1
Output line: > 40.3 µM

Input line: Given the entry Cc1ccc(F)c(NC(=O)C2CCCCC2C(=O)O)c1 (stereo not given) , what Ki was observed with N-formyl peptide receptor 2 (Homo sapiens)?
Output line: > 40.3 µM

Input line: Lookup: Ki / N-formyl peptide receptor 2 (Homo sapiens) / C=CCN1C(=O)C2(/C(=C(\O)c3ccc4c(c3)OCCO4)C(=O)C(=O)N2CCCOC)c2ccccc21 (stereo not given)
Output line: > 40.3 µM

Input line: Param readout = Ki; param system = N-formyl peptide receptor 2 (Homo sapiens); param query = O=C(C1=C(O)C(=O)N(CCc2ccccc2)C1c1cccnc1)c1ccco1 (stereo not given) ; response: value
Output line: > 40.3 µM

---

Entries below carry reported Ki on UniProt:P25090.
Sequence (P25090 whole entry, looked up): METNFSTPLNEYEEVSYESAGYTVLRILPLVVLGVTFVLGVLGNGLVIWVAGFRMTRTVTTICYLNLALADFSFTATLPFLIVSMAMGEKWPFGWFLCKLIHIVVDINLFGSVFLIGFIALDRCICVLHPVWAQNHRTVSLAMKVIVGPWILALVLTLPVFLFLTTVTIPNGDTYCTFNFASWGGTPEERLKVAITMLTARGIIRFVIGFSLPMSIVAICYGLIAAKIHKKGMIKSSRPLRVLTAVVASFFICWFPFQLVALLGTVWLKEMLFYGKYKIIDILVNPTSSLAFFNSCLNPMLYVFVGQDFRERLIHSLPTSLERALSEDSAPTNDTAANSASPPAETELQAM

Worked set:
- Compound: "CCOC(=O)c1c(NC(=O)c2cc(C3CC3)on2)sc2c1CCCC2"
  Ki: "> 40.3 µM"
- Compound: "CCOc1ccccc1Oc1c(C)oc2cc(OC(=O)c3ccco3)ccc2c1=O"
  Ki: "> 40.3 µM"
- Compound: "Cc1nnc(SCc2cnc(-c3ccccc3)o2)[nH]c1=O"
  Ki: "> 40.3 µM"
- Compound: "O=S(=O)(c1cnc[nH]1)N1CCc2ccccc21"
  Ki: "> 40.3 µM"
- Compound: "COc1ccc(OC)c(C2/C(=C(/O)c3ccccc3)C(=O)C(=O)N2Cc2ccco2)c1 (stereo not drawn)"
  Ki: "> 40.3 µM"
- Compound: "O=c1cc(N2CCc3ccccc32)[nH]c(=O)n1Cc1ccc(F)cc1"
  Ki: "> 40.3 µM"
- Compound: "COc1cccc(/C(O)=C2/C(=O)C(=O)N(Cc3cccnc3)C2c2ccco2)c1 (stereo not drawn)"
  Ki: "> 40.3 µM"
- Compound: "COCCCN1C(=O)C(=O)/C(=C(/O)c2ccccc2)C1c1ccc2c(c1)OCO2 (stereo not drawn)"
  Ki: "> 40.3 µM"
- Compound: "CCCOc1ccc(C2C(C(=O)c3ccc(C)o3)=C(O)C(=O)N2Cc2cccnc2)cc1 (stereo not drawn)"
  Ki: "> 40.3 µM"
- Compound: "CCOC(=O)c1c(-c2ccc(-c3ccccc3)cc2)csc1NC(=O)C1C2CCC(O2)C1C(=O)O (stereo not drawn)"
  Ki: "> 40.3 µM"

Input line: Please state recorded Ki (tested on UniProt:P25090) of COC(=O)c1ccc(C2/C(=C(/O)c3ccc(OC)cc3)C(=O)C(=O)N2Cc2ccco2)cc1 (stereo not drawn)
Output line: > 40.3 µM

Input line: # value lookup — system UniProt:P25090, readout Ki, item Cc1ccc(C2/C(=C(/O)c3ccc(Br)cc3)C(=O)C(=O)N2Cc2ccco2)o1 (stereo not drawn)
Output line: > 40.3 µM

Input line: Any idea what Ki came out for Cc1nc2c(-c3ccc(F)cc3)c(C)nn2c(C)c1CCC(=O)NC(C)CCc1ccco1 (stereo not drawn) on UniProt:P25090?
Output line: > 40.3 µM
